- target.entity: Human recombinant SCP-2 (Homo sapiens, UniProt P22307)
- Sequence (P22307 405-547): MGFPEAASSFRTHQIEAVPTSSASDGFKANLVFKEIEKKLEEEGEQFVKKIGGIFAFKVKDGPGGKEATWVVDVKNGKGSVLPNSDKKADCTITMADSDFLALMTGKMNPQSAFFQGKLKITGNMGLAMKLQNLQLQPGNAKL
- protocol.summary: NBDS displacement assay
- Assay type: binding
- condition.notes: Ki, Ki = (Kd,NBDS × EC50)/[NBDS]total; NBDS 0.5 μM
Answer each item with its documented pKi.
// pKi: -log10(molar conc.)

Q) What value of pKi has been reported for the following compound? CCCCC/C=C\C/C=C\C/C=C\C/C=C\CCCC(=O)OCC(O)CO (centres unmarked)
A) 6.09

Q) What about this compound? CCCCC/C=C\C/C=C\C/C=C\C/C=C\CCCC(=O)OC(CO)CO
A) 6.43

====

- target.entity: Human recombinant SCP-2 (Homo sapiens, UniProt P22307)
- protocol.summary: NBDS displacement assay
- Assay type: binding
- condition.notes: displacement of SCP-2 (500 nM)-bound NBDS (500 nM), 24°C, 10 mM phosphate buffer pH 7.4, n=4
readout.type: Max % Displacement (%)
Expressed in %, but write only the number.

Q) Need Max % Displacement, item CCCCC/C=C\C/C=C\C/C=C\C/C=C\CCCC(=O)OCC(O)CO (stereo not shown) [Compound 3, 1-arachidonoyl glycerol]
A) 57.7

Q) Similarly, CCCCC/C=C\C/C=C\C/C=C\C/C=C\CCCC(=O)NCCc1c[nH]c2ccc(O)cc12 [Compound 8, N-arachidonoyl serotonin] ?
A) 84.8

Q) Param item: CCCCC/C=C\C/C=C\C/C=C\C/C=C\CCCC(=O)NCCF [Compound 5, arachidonoyl-2’-fluoroethylamide]
A) 64.4

Q) # repeat for CCCCC/C=C\C/C=C\C/C=C\C/C=C\CCCC(=O)NCC(=O)O [Compound 7, N-arachidonoyl glycine]
A) 82.0

Q) Entry CCCCC/C=C\C/C=C\C/C=C\C/C=C\CCCC(=O)NCCO [Compound 1, N-arachidonoylethanolamine] please
A) 59.3

Q) Continue with CCCCC/C=C\C/C=C\C/C=C\C/C=C\CCCC(=O)OC(CO)CO [Compound 2, 2-arachidonoylglycerol]
A) 55.1

Q) Another compound: CC(=O)Nc1ccc(Nc2nc(-c3ccc(Cl)c(Cl)c3)cs2)cc1 [Compound 14]
A) 96.6
